Target: KAT2A (Homo sapiens (Human), UniProt Q92830)
Sequence (Q92830 whole entry): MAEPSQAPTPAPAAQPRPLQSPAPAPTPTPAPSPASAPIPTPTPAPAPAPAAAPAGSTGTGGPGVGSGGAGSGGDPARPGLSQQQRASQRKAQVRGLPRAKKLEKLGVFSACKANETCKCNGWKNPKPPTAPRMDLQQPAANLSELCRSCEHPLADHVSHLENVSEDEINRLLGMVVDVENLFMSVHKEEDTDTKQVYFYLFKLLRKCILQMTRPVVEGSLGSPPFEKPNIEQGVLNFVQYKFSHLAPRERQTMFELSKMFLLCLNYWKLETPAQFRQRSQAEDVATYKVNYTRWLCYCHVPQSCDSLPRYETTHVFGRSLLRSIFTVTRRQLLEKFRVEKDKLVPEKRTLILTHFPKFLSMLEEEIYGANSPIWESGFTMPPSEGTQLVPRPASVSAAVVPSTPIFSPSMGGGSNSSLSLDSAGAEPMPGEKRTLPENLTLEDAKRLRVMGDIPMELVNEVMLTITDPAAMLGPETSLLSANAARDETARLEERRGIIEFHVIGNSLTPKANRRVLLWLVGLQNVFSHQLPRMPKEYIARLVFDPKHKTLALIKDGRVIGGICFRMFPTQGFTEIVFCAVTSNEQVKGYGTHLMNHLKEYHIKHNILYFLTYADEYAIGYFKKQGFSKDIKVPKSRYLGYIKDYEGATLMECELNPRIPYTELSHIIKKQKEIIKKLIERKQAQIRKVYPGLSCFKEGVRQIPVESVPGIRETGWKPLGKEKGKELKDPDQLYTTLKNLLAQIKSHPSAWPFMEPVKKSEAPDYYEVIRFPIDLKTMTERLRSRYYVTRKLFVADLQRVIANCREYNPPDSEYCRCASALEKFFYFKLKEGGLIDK
Experiment: KAT2A acetyltransferase biochemical assay (RapidFire mass spectrometry, AcCoA to CoA)
Conditions: read-out: KAT2A Ki at 1 μM AcCoA, 5 μM H3 1-21 peptide, 0.5 nM KAT2A, 90-minute reaction
measured.attribute: Ki (nM)
Record the value in nM, omitting the unit from your answer.

Challenge: Which Ki value belongs to CC(C)(C(=O)NS(=O)(=O)C1CC1)c1ccc(O[C@@H]2CC[C@@H](NC(=O)[C@]3(F)CNC4(CCC4)C3)C2)c(-c2cccc(F)c2C2CCC2)c1 (single isomer, unassigned) [Example B11] ?
Response given: 517

Challenge: And CC(C)(C(=O)O)c1ccc(O[C@@H]2CC[C@@H](NC(=O)[C@@]3(F)CNCC4(CCC4)C3)C2)c(-c2cccc(F)c2C2CCC2)c1 (single isomer, unassigned) [Example A28] ?
Response given: 1.41

Challenge: And CN1CC(C)(C)C[C@H]1C(=O)N[C@H]1C[C@H](Oc2ccc(C(=O)O)cc2-c2ccccc2C2CCC2)C[C@H]1O (single isomer, unassigned) [Example K2] ?
Response given: 1.21

Challenge: And CN1CC(C)(C)C[C@H]1C(=O)N[C@@H]1CC[C@@H](Oc2cccc(CC(=O)NS(C)(=O)=O)c2-c2ccccc2C2CCC2)C1 (atropisomer, axis not shown) [Example I3] ?
Response given: 1430

Challenge: And CC(C)S(=O)(=O)NC(=O)Cc1cccc(O[C@@H]2CC[C@@H](NC(=O)[C@@]3(F)CNC4(CCC4)C3)C2)c1-c1cccc(F)c1C1CCC1 (atropisomer, axis not shown) [Example I16] ?
Response given: 0.03

Challenge: And CC(C)(C(=O)O)c1ccc(O[C@@H]2CC[C@@H](NC(=O)[C@]3(F)CNC4(CCCC4)C3)C2)c(-c2cccc(F)c2C2CCC2)c1 (single isomer, unassigned) [Example A6] ?
Response given: 0.54

Challenge: And CN1CC2(CCCC2)C[C@H]1C(=O)N[C@@H]1CC[C@@H](Oc2cccc(C(=O)NS(C)(=O)=O)c2-c2cccc(F)c2C2CCC2)C1 (atropisomer, axis not shown) [Example I9] ?
Response given: 411

Challenge: And Cn1cc(-c2ccc(O[C@@H]3CC[C@@H](NC(=O)[C@]4(F)CNC5(CCC5)C4)C3)c(-c3cccc(F)c3C3CCC3)c2)c(C(=O)O)n1 (single isomer, unassigned) [Example J10] ?
Response given: 0.27

Challenge: And CC(C)c1ccccc1-c1cc(CC(=O)NS(=O)(=O)C(C)C)ccc1O[C@@H]1CC[C@@H](NC(=O)[C@@]2(F)CNCC(C)(C)C2)C1 (single isomer, unassigned) [Example C75] ?
Response given: 0.17

Challenge: And CCS(=O)(=O)NC(=O)Cc1ccc(O[C@@H]2CC[C@@H](NC(=O)[C@@]3(F)CNC4(CCC4)C3)C2)c(-c2ccccc2C(C)C)c1 [Example C53] ?
Response given: 0.1
